// IC50 lookup, one value per entry
# targetUnderTest: Kv1.5 K+ channel (Homo sapiens, UniProt P22460)
# Sequence (P22460 whole entry): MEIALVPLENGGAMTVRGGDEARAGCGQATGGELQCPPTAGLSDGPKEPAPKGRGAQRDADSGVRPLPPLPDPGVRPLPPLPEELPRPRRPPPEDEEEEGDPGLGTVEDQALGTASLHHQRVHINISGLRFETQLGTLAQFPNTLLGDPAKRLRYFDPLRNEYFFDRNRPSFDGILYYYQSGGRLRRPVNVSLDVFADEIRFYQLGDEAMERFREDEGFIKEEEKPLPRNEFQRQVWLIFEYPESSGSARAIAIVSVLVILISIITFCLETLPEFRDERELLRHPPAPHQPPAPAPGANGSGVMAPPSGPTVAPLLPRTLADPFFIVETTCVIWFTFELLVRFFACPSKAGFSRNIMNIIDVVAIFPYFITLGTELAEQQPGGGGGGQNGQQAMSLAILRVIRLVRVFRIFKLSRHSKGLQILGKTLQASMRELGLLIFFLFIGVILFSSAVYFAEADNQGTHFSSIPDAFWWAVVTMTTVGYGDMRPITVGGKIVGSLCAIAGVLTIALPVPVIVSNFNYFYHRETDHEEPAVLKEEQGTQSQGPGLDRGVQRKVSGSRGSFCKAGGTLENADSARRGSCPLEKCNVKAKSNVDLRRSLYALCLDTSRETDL
# testName: Whole cell patch clamp of dexamethasone-induced Kv1.5-transfected Ltk-cells
# particulars: Ltk-cells overexpressing Kv1.5, whole cell patch clamp

CCc1ccc(S(=O)(=O)N[C@H]2c3cc(NC(=O)c4cccc(OC)c4)ccc3C[C@@H]2O)cc1    170 nM

Task: Which measured IC50 value corresponds to COc1ccc(CCN2C(=O)CSC2c2ccc(C)c(C)c2)cc1 (centres unmarked) ?
Result: 137 nM
